Measured On: T1, human PSMA on PSMA-expressing cells (human, UniProt Q04609 1-750)
T1 construct: Cell line is named under assay or readout in each row; also called B16F10.9/hPSMA; B16F10.9/PSMA
Procedure Summary: FACS on B16F10.9/PSMA cells
pEC50 values, listed per item
FYI, pEC50 means -log10 of a concentration in mol per litre.

Please review the following examples before continuing.
## Task Supply measured pEC50 of BSPSMA/CD3-200 (bispecific antibody, IgG4, V domains shown, modified (chimeric) IgG4 Fc domain; also called PSMA-VH-11810 x CD3-VH-G2) VH 1: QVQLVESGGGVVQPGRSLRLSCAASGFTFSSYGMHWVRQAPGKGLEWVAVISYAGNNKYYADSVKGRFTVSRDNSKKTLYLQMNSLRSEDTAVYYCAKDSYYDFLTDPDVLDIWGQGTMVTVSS VH 2: EVQLVESGGGLVQPGRSLRLSCAASGFTFDDYAMHWVRQAPGKGLEWVSGISWNSGSIGYADSVKGRFTISRDNAKNSLYLQMNSLRAEDTALYYCAKDGSGYGYFYYYGMDVWGQGTTVTVSS VL: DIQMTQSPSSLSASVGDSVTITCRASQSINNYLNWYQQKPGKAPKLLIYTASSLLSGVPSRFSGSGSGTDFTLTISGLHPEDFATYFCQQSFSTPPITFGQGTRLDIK in your reply.
## Result 8.73

## Task Supply measured pEC50 of BSPSMA/CD3-1500 (bispecific antibody, IgG4, V domains shown, modified (chimeric) IgG4 Fc domain; also called PSMA-VH-11810 x CD3-VH-G15) VH 1: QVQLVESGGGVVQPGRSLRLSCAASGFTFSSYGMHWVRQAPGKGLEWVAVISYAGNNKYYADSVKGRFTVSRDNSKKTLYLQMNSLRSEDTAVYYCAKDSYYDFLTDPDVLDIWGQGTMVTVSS VH 2: EVQLVESGGGLVQPGRSLRLSCAASGFTFDDYSMHWVRQAPGKGLEWVSGISWNSGSKGYADSVKGRFTISRDNAKNSLYLQMNSLRAEDTALYYCAKDGSGYGKFYYYGLDVWGQGTTVTVSS VL: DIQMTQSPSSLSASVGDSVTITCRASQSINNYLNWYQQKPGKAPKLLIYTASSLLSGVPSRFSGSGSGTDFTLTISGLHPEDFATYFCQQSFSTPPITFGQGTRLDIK in your reply.
## Result 8.92

Others:
## Task Supply measured pEC50 of BSPSMA/CD3-1000 (bispecific antibody, IgG4, V domains shown, modified (chimeric) IgG4 Fc domain; also called PSMA-VH-11810 x CD3-VH-G10) VH 1: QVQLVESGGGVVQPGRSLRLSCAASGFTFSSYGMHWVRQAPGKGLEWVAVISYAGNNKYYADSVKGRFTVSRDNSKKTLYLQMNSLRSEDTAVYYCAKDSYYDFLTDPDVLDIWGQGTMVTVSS VH 2: EVQLVESGGGLVQPGRSLRLSCAASGFTFDDYSMHWVRQAPGKGLEWVSGISWNSGSKGYADSVKGRFTISRDNAKNSLYLQMNSLRAEDTALYYCAKYGSGYGKFYYYGLDVWGQGTTVTVSS VL: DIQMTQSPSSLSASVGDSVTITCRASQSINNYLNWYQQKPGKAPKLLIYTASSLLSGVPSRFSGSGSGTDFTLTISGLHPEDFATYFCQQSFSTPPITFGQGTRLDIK in your reply.
## Result 8.92
